- TEST_TARGET: S1P-4 (EDG-6) (Homo sapiens, UniProt O95977)
- Sequence (O95977 whole entry): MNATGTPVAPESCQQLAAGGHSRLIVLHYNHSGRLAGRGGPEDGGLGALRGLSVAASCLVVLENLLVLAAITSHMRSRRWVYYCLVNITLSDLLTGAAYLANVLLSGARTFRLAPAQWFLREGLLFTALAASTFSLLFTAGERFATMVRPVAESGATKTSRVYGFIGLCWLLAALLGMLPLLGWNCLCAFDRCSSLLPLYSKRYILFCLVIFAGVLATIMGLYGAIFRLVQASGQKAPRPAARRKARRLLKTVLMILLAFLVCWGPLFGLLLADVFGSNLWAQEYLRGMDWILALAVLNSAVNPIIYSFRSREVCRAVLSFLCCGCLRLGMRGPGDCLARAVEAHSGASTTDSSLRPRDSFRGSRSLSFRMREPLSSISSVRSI
- MEASUREMENT_PROTOCOL: EDG-6 GTP [γ-35S] binding SPA assay
MEASURED_ENDPOINT: EC50

>>> df
                                   compound  measured_endpoint   result
0  Cc1cc(OCc2ccc(C3CCN(CCC(=O)O)CC3)cc2)ccc1-c1ccccc1 [Example 8]               EC50  > 10 µM

---

- TEST_TARGET: S1P-3 (EDG-3) (Homo sapiens)
- Sequence (Q99500 whole entry): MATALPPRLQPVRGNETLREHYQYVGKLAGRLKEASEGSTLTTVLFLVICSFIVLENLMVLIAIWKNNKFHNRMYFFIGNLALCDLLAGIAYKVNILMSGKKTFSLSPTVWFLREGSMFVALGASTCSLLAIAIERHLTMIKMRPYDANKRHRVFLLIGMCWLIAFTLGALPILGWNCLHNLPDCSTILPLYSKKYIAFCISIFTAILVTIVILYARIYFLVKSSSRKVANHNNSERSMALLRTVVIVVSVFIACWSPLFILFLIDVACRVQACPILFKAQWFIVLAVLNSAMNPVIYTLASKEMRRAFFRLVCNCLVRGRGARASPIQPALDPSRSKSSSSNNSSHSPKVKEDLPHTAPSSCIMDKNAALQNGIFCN
- MEASUREMENT_PROTOCOL: EDG-3 GTP [γ-35S] binding SPA assay
pEC50: −log10 of the molar value.
MEASURED_ENDPOINT: pEC50

                         compound_structure  numeric_value
0  Cc1cc(OCc2ccc(C3CCN(CCC(=O)O)CC3)cc2)ccc1-c1ccccc1           5.70
